These entries and their values trace back to patent US20230147840A1.

Provide the reported log10 of Kd of each item.
- assayed.target: T1, Human CD3eg linker (human)
- T1 construct: Single-chain soluble construct; also called recombinant human CD3
- T1 chain: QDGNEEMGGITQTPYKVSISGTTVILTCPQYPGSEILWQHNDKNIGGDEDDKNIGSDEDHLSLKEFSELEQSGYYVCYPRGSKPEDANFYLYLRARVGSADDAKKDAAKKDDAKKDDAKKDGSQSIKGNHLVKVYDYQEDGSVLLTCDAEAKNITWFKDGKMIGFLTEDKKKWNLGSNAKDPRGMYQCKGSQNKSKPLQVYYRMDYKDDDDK
- procedure.summary: SPR Biacore 8K, Ab captured on anti-human Fc, CD3 as analyte, 25 C
Note: values are log10 of Kd expressed in nM.

Endpoint output: log10 of Kd of H1572L0581 (antibody, V domains shown, Dual-Ig with an Fc; also called DualAE26; dBBDu183H1572/dBBDu072L0581) VH: QVQLVESGGGLVQPGRSLRLSCAASGFKFSNVWFHWVRQAPGKGLEWVAQIKDKYNAYAAYYAPSVKGRFTISRDDSKNSIYLQMNSLKTEDTAVYYCHYVHYASASTLLPAEGVDAWGQGTTVTVSS VL: DIVMTQSPLSLPVTPGEPASISCQPSQEVVHMNRNTYLHWYQQKPGQAPRLLIYKVSNRFPGVPDRFSGSGSGTDFTLKISRVEAEDVGVYYCAQGTSHPFTFGQGTKLEIK . Value?
2.46

Endpoint output: log10 of Kd of H1579L0581 (antibody, V domains shown, Dual-Ig with an Fc; also called DualAE25; dBBDu183H1579/dBBDu072L0581) VH: QVQLVESGGGLVQPGRSLRLSCAASGFKFSHVWFHWVRQAPGKGLEWVAQIKDKYNAYAAYYAPSVKGRFTISRDDSKNSIYLQMNSLKTEDTAVYYCHYVHYASASTLLPAFGVDAWGQGTTVTVSS VL: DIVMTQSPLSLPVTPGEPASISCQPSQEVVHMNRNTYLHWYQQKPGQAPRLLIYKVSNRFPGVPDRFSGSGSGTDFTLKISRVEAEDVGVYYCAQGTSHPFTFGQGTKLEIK . Value?
2.44

Endpoint output: log10 of Kd of H0883 (antibody, V domains shown, Dual-Ig with an Fc; also called DualAE27; dBBDu183H0883/dBBDu072L) VH: QVQLVESGGGLVQPGRSLRLSCAASGFTFSNAWMHWVRQAPGKGLEWVAQIKDKGNAYAAYYAPSVKGRFTISRDDSKNSIYLQMNSLKTEDTAVYYCRYVHYASASTLLPAFGVDAWGQGTTVTVSS VL: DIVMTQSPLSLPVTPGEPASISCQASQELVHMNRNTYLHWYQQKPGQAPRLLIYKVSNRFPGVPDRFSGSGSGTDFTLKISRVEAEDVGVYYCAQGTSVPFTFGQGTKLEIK . Value?
2.04

Endpoint output: log10 of Kd of H1595L0581 (antibody, V domains shown, Dual-Ig with an Fc; also called DualAE24; dBBDu183H1595/dBBDu072L0581) VH: QVQLVESGGGLVQPGRSLRLSCAASGFKFSNTWMHWVRQAPGKGLEWVAQIKDKYNAYAAYYAPSVKGRFTISRDDSKNSIYLQMNSLKTEDTAVYYCHYIHYASASTLLPAFGVDAWGQGTTVTVSS VL: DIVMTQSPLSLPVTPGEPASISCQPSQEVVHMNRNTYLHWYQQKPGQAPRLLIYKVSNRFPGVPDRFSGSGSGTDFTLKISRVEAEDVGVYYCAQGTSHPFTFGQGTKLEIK . Value?
1.76

Endpoint output: log10 of Kd of H1644L0939 (antibody, V domains shown, Dual-Ig with an Fc; also called DualAE16; dBBDu183H1644/dBBDu072L0939) VH: QVQLVESGGGLVQPGRSLRLSCAASGFVFSNVWFHWVRQAPGKGLEWVAQIKDYYNAYAAYYAPSVKGRFTISRDDSKNSIYLQMNSLKTEDTAVYYCHYVHYASASTLLPAEGVDAWGQGTTVTVSS VL: DIVMTQSPLSLPVTPGEPASISCQPSQEVVHMNRNTYLHWYQQKPGQAPRLLIYKVSNVFPGVPDRFSGSGSGTDFTLKISRVEAEDVGVYYCAQGTHHPFTFGQGTKLEIK . Value?
3.16

Endpoint output: log10 of Kd of H1573L0581 (antibody, V domains shown, Dual-Ig with an Fc; also called DualAE07; dBBDu183H1573/dBBDu072L0581) VH: QVQLVESGGGLVQPGRSLRLSCAASGFKFSNVWFHWVRQAPGKGLEWVAQIKDYYNAYAAYYAPSVKGRFTISRDDSKNSIYLQMNSLKTEDTAVYYCHYVHYASASTLLPAFGVDAWGQGTTVTVSS VL: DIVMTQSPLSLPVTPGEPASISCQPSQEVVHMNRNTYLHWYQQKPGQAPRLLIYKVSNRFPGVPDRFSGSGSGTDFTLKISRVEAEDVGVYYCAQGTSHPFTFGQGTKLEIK . Value?
2.20
